This collection of values is drawn from patent US7803801B2.

System: cultured human mast cells
Experiment: Degranulation inhibition test using cultured human mast cells (IgE cross-linking, β-Hexosaminidase release)
Format: cell-based
Details: Mast cell; cultured human mast cells, anti-hIgE stimulation, β-Hexosaminidase index, average; read-out: human degranulation ave. IC50
pIC50: −log10 of the molar value.
Entries and their pIC50 values follow.

>  <compound>
Cc1ccnc(Nc2cccc(-c3cnc(CN4CCC(NC(=O)CO)CC4)s3)n2)c1 [Compound A-247]

>  <pIC50>
6.00 to 7.00

$$$$
>  <compound>
O=C([C@H]1CC[C@H](c2ncc(-c3cccc(Nc4cc(Cl)ccn4)n3)s2)CC1)N1CCC(O)CC1 [Compound A-297]

>  <pIC50>
6.00 to 7.00

$$$$
>  <compound>
Cc1ccnc(Nc2cccc(-c3cnc(CCCC(=O)O)s3)n2)c1 [Compound A-131]

>  <pIC50>
< 6.00

$$$$
>  <compound>
C/C(=N\OCCO)c1ncc(-c2cccc(Nc3cc(C)ccn3)n2)s1 [Compound A-35]

>  <pIC50>
6.00 to 7.00

$$$$

----------
The following compounds are shown together with reported pIC50 values.
System: cultured human mast cells
Experiment: Degranulation inhibition test using cultured human mast cells (IgE cross-linking, β-Hexosaminidase release)
Format: cell-based
Details: Mast cell; cultured human mast cells, anti-hIgE stimulation, β-Hexosaminidase index, average; read-out: human degranulation ave. IC50
pIC50: −log10 of the molar value.

>  <compound>
Cc1ccnc(Nc2cccc(-c3cnc([C@H](C)NC(=O)C4CCC(O)CC4)s3)n2)c1 (stereo partly shown)

>  <pIC50>
< 6.00

$$$$
>  <compound>
Cc1ccnc(Nc2cccc(-c3cnc(C(=O)NC4CCCCC4O)s3)n2)c1 (stereo not shown)

>  <pIC50>
< 6.00

$$$$
>  <compound>
CC(=O)NC1CCN(Cc2ncc(-c3cccc(Nc4cc(C)ccn4)n3)s2)CC1

>  <pIC50>
< 6.00

$$$$
>  <compound>
Cc1ccnc(Nc2cccc(-c3cnc([C@H]4CC[C@H](C(=O)NCCO)CC4)s3)n2)c1

>  <pIC50>
6.00 to 7.00

$$$$
>  <compound>
CC(=O)N[C@H](c1ccc(O)cc1)c1ncc(-c2cccc(Nc3cc(C)ccn3)n2)s1

>  <pIC50>
6.00 to 7.00

$$$$
>  <compound>
CC(=O)N1C[C@H](OCc2ccccc2)C[C@H]1c1ncc(-c2cccc(Nc3cc(C)ccn3)n2)s1

>  <pIC50>
< 6.00

$$$$
>  <compound>
Cc1ccnc(Nc2cccc(-c3cnc(CCc4cccc(C(=O)O)c4)s3)n2)c1

>  <pIC50>
< 6.00

$$$$
>  <compound>
Cc1ccnc(Nc2cccc(-c3cnc([C@H]4CC[C@H](C(=O)N5CCN(C)CC5)CC4)s3)n2)c1

>  <pIC50>
6.00 to 7.00

$$$$
>  <compound>
Cc1ccnc(Nc2cccc(-c3cnc(N(C)C[C@H]4CC[C@H](C(=O)O)CC4)s3)n2)c1

>  <pIC50>
6.00 to 7.00

$$$$
>  <compound>
Cc1ccnc(Nc2cccc(-c3cnc([C@H](N)c4ccc(OCc5ccccc5)cc4)s3)n2)c1

>  <pIC50>
< 6.00

$$$$
>  <compound>
Cc1ccnc(Nc2cccc(-c3cnc([C@H](C)NC(=O)N(C)C)s3)n2)c1

>  <pIC50>
6.00 to 7.00

$$$$
>  <compound>
Cc1ccnc(Nc2cccc(-c3cnc(CN4CCN(S(C)(=O)=O)CC4)s3)n2)c1

>  <pIC50>
6.00 to 7.00

$$$$
>  <compound>
Cc1ccnc(Nc2cccc(-c3cnc(C4CCN(S(C)(=O)=O)CC4)s3)n2)c1

>  <pIC50>
6.00 to 7.00

$$$$
>  <compound>
O=C1CC[C@@H](c2ncc(-c3cccc(Nc4cc(OCCO)ccn4)n3)s2)N1

>  <pIC50>
6.00 to 7.00

$$$$
>  <compound>
Cc1ccnc(Nc2cccc(-c3cnc([C@@H](O)CN(C)C)s3)n2)c1

>  <pIC50>
6.00 to 7.00

$$$$
>  <compound>
Cc1ccnc(Nc2cccc(-c3cnc([C@@H](NC(=O)OC(C)(C)C)C(C)C)s3)n2)c1

>  <pIC50>
< 6.00

$$$$
